src = ChEMBL document CHEMBL5634130

Assay comment: Thermodynamic solubility of compound at pH 7.4
Type: physicochemical
Experimental parameters: buffer, read-out: Therm_solubility
Property label: solubility thermodynamic (µg/mL)
Express your answer in µg/mL, writing the number without its unit.

1. C[C@@H](COCCC(=O)N1CCN(c2ncc(C(F)(F)F)cn2)CC1)Nc1cn[nH]c(=O)c1C(F)(F)F [ATAMPARIB] ... 52.8

# solubility thermodynamic (molecule: O=C(CCOC[C@@H]1CCN1c1cn[nH]c(=O)c1C(F)(F)F)N1CCN2c3ncc(C(F)(F)F)cc3OC[C@@H]2C1 ) is 114

----------
Assay comment: Cmax in fasted Beagle dog at 10 mg/kg, po measured for 24 hrs by LC-MS analysis
Assay type: ADME, organism-based, Canis lupus familiaris
Experimental parameters: in vivo
Property label: Cmax (ng/mL)
Expressed in ng/mL, but write only the number.

1. O=C(CCOC[C@@H]1CCN1c1cn[nH]c(=O)c1C(F)(F)F)N1CCN2c3ncc(C(F)(F)F)cc3OC[C@@H]2C1 ... 2300

For record C[C@@H](COCCC(=O)N1CCN(c2ncc(C(F)(F)F)cn2)CC1)Nc1cn[nH]c(=O)c1C(F)(F)F the listed Cmax is 1800

----------
pIC50, Cytochrome P450 3A4 (Homo sapiens), per-entry values.
pIC50: −log10 of the molar value.

1. O=C(CCOC[C@@H]1CCN1c1cn[nH]c(=O)c1C(F)(F)F)N1CCN2c3ncc(C(F)(F)F)cc3OC[C@@H]2C1 ... < 4.52

# C[C@@H](COCCC(=O)N1CCN(c2ncc(C(F)(F)F)cn2)CC1)Nc1cn[nH]c(=O)c1C(F)(F)F with Cytochrome P450 3A4 (Homo sapiens): pIC50 is < 4.52

----------
System: MDA-MB-436
Assay comment: Antiproliferative activity against human MDA-MB-436 cells assessed as inhibition of cell viability incubated for 7 days by luminescence based assay
Assay type: functional
Experimental parameters: MDA-MB-436, 168 h
pIC50: −log10 of the molar value.
Property label: pIC50

Summary for this compound, O=C(CCOC[C@@H]1CCN1c1cn[nH]c(=O)c1C(F)(F)F)N1CCN2c3ncc(C(F)(F)F)cc3OC[C@@H]2C1 : pIC50 is < 5.00

----------
Assay comment: Thermodynamic solubility of compound at pH 2
Type: physicochemical
Experimental parameters: buffer, read-out: Therm_solubility
Recorded solubility thermodynamic values for a group of molecules are listed next.
Field: value (include unit after the number)

1. O=C(CCOC[C@@H]1CCN1c1cn[nH]c(=O)c1C(F)(F)F)N1CCN2c3ncc(C(F)(F)F)cc3OC[C@@H]2C1 ... 0.601 mg/mL

--- query ---
solubility thermodynamic measured on C[C@@H](COCCC(=O)N1CCN(c2ncc(C(F)(F)F)cn2)CC1)Nc1cn[nH]c(=O)c1C(F)(F)F = 0.0689 mg/mL

----------
Assay comment: AUC in fasted ICR mouse at 10 mg/kg, po measured for 24 hrs by LC-MS analysis
Assay type: ADME, organism-based
Experimental parameters: in vivo
Property label: AUC (ng·h/mL)
Just the number please, in ng·h/mL, no unit attached.

Worked examples follow.
1. C[C@@H](COCCC(=O)N1CCN(c2ncc(C(F)(F)F)cn2)CC1)Nc1cn[nH]c(=O)c1C(F)(F)F ... 617
2. O=C(CCOC[C@@H]1CCN1c1cn[nH]c(=O)c1C(F)(F)F)N1CCN2c3ncc(Cl)cc3OC[C@@H]2C1 ... 544
3. C[C@@H](COCCC(=O)N1CCN2c3ncc(C(F)(F)F)cc3OC[C@@H]2C1)Oc1cn[nH]c(=O)c1C(F)(F)F ... 1835
4. C[C@@H](COCCC(=O)N1CCN2c3ncc(C(F)(F)F)cc3OC[C@@H]2C1)Nc1cn[nH]c(=O)c1C(F)(F)F ... 306

The recorded AUC for O=C(CCOC[C@@H]1CCN1c1cn[nH]c(=O)c1C(F)(F)F)N1CCN2c3ncc(C(F)(F)F)cc3OC[C@@H]2C1 is 1146

----------
Assay comment: Kinetic solubility of compound at pH 7.4
Assay type: physicochemical
Experimental parameters: buffer, read-out: Kinetic_solubility
Property label: solubility kinetic (µM)
Record the value in µM, omitting the unit from your answer.

1. C[C@@H](COCCC(=O)N1CCN(c2ncc(C(F)(F)F)cn2)CC1)Nc1cn[nH]c(=O)c1C(F)(F)F ... 158

Value of solubility kinetic reported for the compound O=C(CCOC[C@@H]1CCN1c1cn[nH]c(=O)c1C(F)(F)F)N1CCN2c3ncc(C(F)(F)F)cc3OC[C@@H]2C1 is 158

----------
Each item that follows carries a reported half-life.
Assay comment: Half life in fasted ICR mouse at 2 mg/kg, iv measured for 24 hrs by LC-MS analysis
Format: ADME, organism-based
Experimental parameters: in vivo
Include the unit right after the number.

Use these answered entries as a reference point.
1) C[C@@H](COCCC(=O)N1CCN(c2ncc(C(F)(F)F)cn2)CC1)Nc1cn[nH]c(=O)c1C(F)(F)F ... 12 min
2) O=C(CCOC[C@@H]1CCN1c1cn[nH]c(=O)c1C(F)(F)F)N1CCN2c3ncc(C(F)(F)F)cc3OC[C@@H]2C1 ... 42 min
3) C[C@@H](COCCC(=O)N1CCN2c3ncc(C(F)(F)F)cc3OC[C@@H]2C1)Nc1cn[nH]c(=O)c1C(F)(F)F ... 30 min

The compound identified as C[C@@H](COCCC(=O)N1CCN2c3ncc(C(F)(F)F)cc3OC[C@@H]2C1)Oc1cn[nH]c(=O)c1C(F)(F)F registered its half-life at 102 min

compound O=C(CCOC[C@@H]1CCN1c1cn[nH]c(=O)c1C(F)(F)F)N1CCN2c3ncc(Cl)cc3OC[C@@H]2C1 , half-life observed: 36 min

----------
Each entry below lists one item and its recorded CLint scaled value.
Assay comment: Metabolic stability in dog liver microsomes assessed as intrinsic clearance preincubated for 5 mins followed by NADPH addition measured for 1 hr by LC-MS analysis
Type: ADME, Canis lupus familiaris, Microsome
Experimental parameters: time 65 min, read-out: CLH
Reply with just the number (in mL/min/kg).

1) C[C@@H](COCCC(=O)N1CCN(c2ncc(C(F)(F)F)cn2)CC1)Nc1cn[nH]c(=O)c1C(F)(F)F ... 17.1

The recorded CLint scaled for O=C(CCOC[C@@H]1CCN1c1cn[nH]c(=O)c1C(F)(F)F)N1CCN2c3ncc(C(F)(F)F)cc3OC[C@@H]2C1 is 9.1

----------
Assay comment: Clearance in fasted ICR mouse at 2 mg/kg, iv measured for 24 hrs by LC-MS analysis
Assay type: ADME, organism-based
Experimental parameters: in vivo
The entries below come with measured clearance values attached.
Numbers only; they are read as mL/min/kg.

// known answers, use as guide
1) C[C@@H](COCCC(=O)N1CCN2c3ncc(C(F)(F)F)cc3OC[C@@H]2C1)Oc1cn[nH]c(=O)c1C(F)(F)F ... 50.6
2) O=C(CCOC[C@@H]1CCN1c1cn[nH]c(=O)c1C(F)(F)F)N1CCN2c3ncc(Cl)cc3OC[C@@H]2C1 ... 49.4
3) C[C@@H](COCCC(=O)N1CCN2c3ncc(C(F)(F)F)cc3OC[C@@H]2C1)Nc1cn[nH]c(=O)c1C(F)(F)F ... 61
4) C[C@@H](COCCC(=O)N1CCN(c2ncc(C(F)(F)F)cn2)CC1)Nc1cn[nH]c(=O)c1C(F)(F)F [ATAMPARIB] ... 72.6

Now look at this entry.
The compound listed as O=C(CCOC[C@@H]1CCN1c1cn[nH]c(=O)c1C(F)(F)F)N1CCN2c3ncc(C(F)(F)F)cc3OC[C@@H]2C1 shows clearance equal to 49.2

----------
Tested target: Protein mono-ADP-ribosyltransferase PARP14 (Homo sapiens)
Sequence (Q460N5 whole entry): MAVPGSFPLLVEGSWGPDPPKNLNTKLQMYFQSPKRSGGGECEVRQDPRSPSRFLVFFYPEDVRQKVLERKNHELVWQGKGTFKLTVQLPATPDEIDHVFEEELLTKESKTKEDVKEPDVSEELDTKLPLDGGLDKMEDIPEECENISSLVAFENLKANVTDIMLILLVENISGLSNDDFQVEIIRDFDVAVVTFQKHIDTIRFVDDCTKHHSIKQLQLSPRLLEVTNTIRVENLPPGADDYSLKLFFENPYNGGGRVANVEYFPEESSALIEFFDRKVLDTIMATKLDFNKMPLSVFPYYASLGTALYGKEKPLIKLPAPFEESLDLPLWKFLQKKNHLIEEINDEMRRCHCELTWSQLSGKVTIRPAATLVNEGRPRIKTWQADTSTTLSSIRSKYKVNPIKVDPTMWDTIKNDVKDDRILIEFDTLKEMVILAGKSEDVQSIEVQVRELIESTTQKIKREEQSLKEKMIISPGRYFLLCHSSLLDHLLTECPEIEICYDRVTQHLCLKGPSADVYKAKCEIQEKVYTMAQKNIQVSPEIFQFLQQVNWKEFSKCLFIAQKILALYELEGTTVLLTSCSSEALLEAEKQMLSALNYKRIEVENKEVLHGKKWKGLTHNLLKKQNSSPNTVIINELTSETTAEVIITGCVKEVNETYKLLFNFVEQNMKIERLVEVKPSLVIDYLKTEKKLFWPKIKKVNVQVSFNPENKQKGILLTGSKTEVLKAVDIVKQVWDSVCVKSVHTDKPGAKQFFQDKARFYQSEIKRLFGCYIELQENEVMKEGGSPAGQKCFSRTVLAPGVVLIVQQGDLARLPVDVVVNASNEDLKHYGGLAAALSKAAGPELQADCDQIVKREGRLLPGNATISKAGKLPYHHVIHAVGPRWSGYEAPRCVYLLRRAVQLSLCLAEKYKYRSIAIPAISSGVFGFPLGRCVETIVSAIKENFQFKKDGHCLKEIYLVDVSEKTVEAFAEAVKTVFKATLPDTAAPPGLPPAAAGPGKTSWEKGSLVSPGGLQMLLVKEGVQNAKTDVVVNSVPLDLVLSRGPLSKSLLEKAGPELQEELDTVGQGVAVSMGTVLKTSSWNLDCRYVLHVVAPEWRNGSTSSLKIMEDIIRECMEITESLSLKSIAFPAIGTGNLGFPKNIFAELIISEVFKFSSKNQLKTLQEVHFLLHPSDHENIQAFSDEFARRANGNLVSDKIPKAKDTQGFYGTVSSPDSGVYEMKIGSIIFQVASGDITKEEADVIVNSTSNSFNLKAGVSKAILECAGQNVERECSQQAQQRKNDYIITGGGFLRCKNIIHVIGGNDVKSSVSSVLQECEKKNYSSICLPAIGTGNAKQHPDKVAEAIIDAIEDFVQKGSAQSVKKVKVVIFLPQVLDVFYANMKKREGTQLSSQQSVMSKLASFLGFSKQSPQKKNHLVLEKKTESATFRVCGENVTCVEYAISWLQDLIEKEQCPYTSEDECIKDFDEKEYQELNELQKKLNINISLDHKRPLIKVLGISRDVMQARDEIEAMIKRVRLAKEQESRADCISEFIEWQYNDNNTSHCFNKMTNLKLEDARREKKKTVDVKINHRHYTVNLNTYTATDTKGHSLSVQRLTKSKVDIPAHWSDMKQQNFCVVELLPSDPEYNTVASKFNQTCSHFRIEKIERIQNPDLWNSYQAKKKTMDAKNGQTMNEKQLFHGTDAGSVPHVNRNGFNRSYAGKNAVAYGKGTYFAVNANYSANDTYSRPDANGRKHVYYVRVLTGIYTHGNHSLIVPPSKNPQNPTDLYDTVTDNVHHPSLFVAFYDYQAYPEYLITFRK
Property label: IC50

Per the record, O=C(CCOC[C@@H]1CCN1c1cn[nH]c(=O)c1C(F)(F)F)N1CCN2c3ncc(C(F)(F)F)cc3OC[C@@H]2C1 has IC50 of > 1000 nM

----------
Assay comment: Oral bioavailability in fasted ICR mouse at 10 mg/kg measured for 24 hrs by LC-MS analysis
Assay type: ADME, organism-based
Experimental parameters: in vivo
Quick list: bioavailability per entry.
Lab book: enter the figure in %, no units written.

Solved cases (4 shown):
1. C[C@@H](COCCC(=O)N1CCN2c3ncc(C(F)(F)F)cc3OC[C@@H]2C1)Nc1cn[nH]c(=O)c1C(F)(F)F ... 22.3
2. C[C@@H](COCCC(=O)N1CCN2c3ncc(C(F)(F)F)cc3OC[C@@H]2C1)Oc1cn[nH]c(=O)c1C(F)(F)F ... 53.9
3. O=C(CCOC[C@@H]1CCN1c1cn[nH]c(=O)c1C(F)(F)F)N1CCN2c3ncc(C(F)(F)F)cc3OC[C@@H]2C1 ... 33.9
4. C[C@@H](COCCC(=O)N1CCN(c2ncc(C(F)(F)F)cn2)CC1)Nc1cn[nH]c(=O)c1C(F)(F)F ... 26.2

Now for the molecule whose bioavailability we want.
response.value for O=C(CCOC[C@@H]1CCN1c1cn[nH]c(=O)c1C(F)(F)F)N1CCN2c3ncc(Cl)cc3OC[C@@H]2C1 (field: bioavailability) = 25.8
